The reported numbers originate from patent US11535627B2.

# melting point listing for each entry below
reportedEndpoint: melting point

| compound | reportedEndpoint | readoutValue |
| --- | --- | --- |
| CN(Cc1ccccc1)c1ncnc2c1[C@@H]1OC[C@H](CN2)N1S(=O)(=O)c1cccc([N+](=O)[O-])c1 | melting point | 101 to 103 °C |
| C=CCN1C[C@H]2COC(=O)N2Cc2c(N(C)Cc3ccccc3)ncnc21 [Compound 22f] | melting point | 89 to 91 °C |
| CN(Cc1ccccc1)c1ncnc2c1CN1[C@@H](CN2)COCS1(=O)=O [Compound 18f] | melting point | 196 to 198 °C |
| CN(Cc1ccccc1)c1ncnc2c1[C@@H]1OC[C@H](CN2)N1C(=O)NCc1ccccc1 [Compound 15f] | melting point | 67 to 69 °C |
